Hey, just so you know, these numbers are from patent US20230104487A1.

- Assay text: Plasma pharmacokinetics in mice
- Type: in vivo, mouse
- Cond: female, C57BL/6J, mouse, ip; 100 mg/kg, single dose, plasma
Experimental readout: Tmax

**Q:** Consider the compound Cc1c(C(=O)N2CCc3ccccc32)oc2ccc3c(c12)C(=O)CC(C)(c1ccc(Cl)cc1)O3 (stereo not shown) and give its measured Tmax.
**A:** 2 to 4 h

* * *

- Assay text: Plasma pharmacokinetics in mice
- Type: in vivo, mouse
- Cond: female, C57BL/6J, mouse, plasma, ip, 100 mg/kg, single dose, i.p., plasma; read-out: t1/2 (converted)
- Protocol: C57BL/6J female mice (n=4 per each time point) were treated with 100 mg/kg single dose of FORMULA I intraperitoneally. Blood samples were collected 0, 0.5, 1, 2, 4, 8, 12 and 24 h after administration of FORMULA I by cardiac puncture under isoflurane anesthesia. […] For assessment of the brain exposure of FORMULA I, levels in this tissue were only determined at 2nd (n=2) and 4th (n=2) hours according to maximum concentrations of the molecule in plasma. […]
Experimental readout: half-life (h)
Write the answer as a number in h, unit excluded.

**Q:** Consider the compound Cc1c(C(=O)N2CCc3ccccc32)oc2ccc3c(c12)C(=O)CC(C)(c1ccc(Cl)cc1)O3 (stereo not shown) [FORMULA I] and give its measured half-life.
**A:** 5.5

* * *

- Assay text: Plasma pharmacokinetics in mice
- Format: in vivo, mouse
- Cond: female, C57BL/6J, mouse, ip; 100 mg/kg, single dose, plasma
Experimental readout: AUC(0-inf) (ng·h/mL)
Write the answer as a number in ng·h/mL, unit excluded.

**Q:** Consider the compound Cc1c(C(=O)N2CCc3ccccc32)oc2ccc3c(c12)C(=O)CC(C)(c1ccc(Cl)cc1)O3 (stereo not shown) and give its measured AUC(0-inf).
**A:** 5190

* * *

- Assay text: Plasma pharmacokinetics in mice
- Format: in vivo
- Cond: female, C57BL/6J, mouse, ip, 100 mg/kg, single dose, i.p., read-out: AUC0-24
Experimental readout: AUC(0-t) (ng·h/mL)
Write the answer as a number in ng·h/mL, unit excluded.

**Q:** Consider the compound Cc1c(C(=O)N2CCc3ccccc32)oc2ccc3c(c12)C(=O)CC(C)(c1ccc(Cl)cc1)O3 (stereo not shown) [FORMULA I] and give its measured AUC(0-t).
**A:** 4920
